In this section we review reported LogP values for a set of compounds.
test: Log P by HPLC on reversed phase columns (EEC directive 79/831 Annex V.A8); assay type: physicochemical; details: LogP method [a]; compounds of formula (I), Table 1.1
QUANTITY_KIND: LogP

1) CCOC(=O)C(CCSC)NC(=O)c1cc(C#N)c(Br)s1 (stereo not shown) [1.0404]; 3.03^[a]
2) CCOC(=O)C(Cc1ccccc1)NC(=O)c1sc(Cl)c(Cl)c1C(F)F (stereo not shown) [1.0420]; 4.33^[a]
3) COC(=O)C(NC(=O)c1sc(Cl)c(Cl)c1C(F)F)C1CC1 (stereo not shown) [1.0417]; 3.33^[a]
4) O=C(NC1(C(=O)O)CCC1)c1sc(Cl)c(Br)c1Cl [1.0486]; 2.95^[a]
5) CCOC(=O)C(CC(C)C)NC(=O)c1cc(Cl)c(Br)s1 (stereo not shown) [1.0444]; 4.19^[a]
6) CCOC(=O)CNC(=S)c1sc(Br)c(Br)c1Cl [1.0493]; 4.58^[a]
7) CCOC(=O)CCNC(=O)c1cc(C)c(Cl)s1 [1.0465]; 2.49^[a]
8) CCOC(=O)C(Cc1ccccc1)NC(=O)c1sc(Br)c(C(F)F)c1Br (stereo not shown) [1.0504]; 4.40^[a]
9) CCOC(=O)C1(CNC(=O)c2sc(Br)c(Br)c2F)CC1 [1.0445]; 3.86^[a]
10) COC(=O)C1(NC(=O)c2sc(Br)c(Br)c2F)CCOCC1 [1.0447]; 2.77^[a]
11) O=C(O)CNC(=S)c1sc(Cl)c(Br)c1Cl [1.0500]; 3.10^[a]
12) CCOC(=O)C(NC(=O)c1sc(Br)c(C(F)F)c1Br)C(C)C (stereo not shown) [1.0502]; 4.21^[a]
13) O=C(NC1(C(=O)OC2CCC2)CC1)c1sc(C(F)F)c(Br)c1Br [1.0520]; 3.67^[a]
14) CCOC(=O)CNC(=O)c1sc(Br)c(C#N)c1Br [1.0407]; 2.61^[a]
15) CCOC(=O)C1(NC(=O)c2cc(C)c(Cl)s2)CC1 [1.0466]; 2.52^[a]
16) CCOC(=O)C1(NC(=O)c2cc(F)c(Br)s2)CC1 [1.0460]; 2.51^[a]
17) CCOC(=O)C(C)NC(=O)c1sc(Br)c(Cl)c1F (stereo not shown) [1.0425]; 3.38^[a]
18) N#CCNC(=O)c1sc(Br)c(C(F)F)c1Br [1.0509]; 2.37^[a]
19) COC(=O)CNC(=O)c1sc(Cl)c(Cl)c1C(F)F [1.0415]; 2.61^[a]
20) CCOC(=O)C(NC(=O)c1sc(Cl)c(Cl)c1C(F)F)C(C)C (stereo not shown) [1.0418]; 4.13^[a]
21) CCOC(=O)C(CCSC)NC(=O)c1sc(Br)c(Cl)c1F (stereo not shown) [1.0432]; 3.96^[a]
22) NC(=O)C1(NC(=O)c2cc(I)c(I)s2)CC1 [1.0475]; 1.87^[a]

----------
We begin with a simple list: items and their reported LogP.
experiment: Log P by HPLC on reversed phase columns (EEC directive 79/831 Annex V.A8); type: physicochemical; conditions: method marked [a]
QUANTITY_KIND: LogP

1) COC(=O)C1(NC(=O)c2sc(F)c(Br)c2Br)CC1 [1.0707]; 2.76^[a]
2) CCOC(=O)C1(NC(=O)c2sc(Br)c(C#N)c2Cl)CC1 [1.0691]; 2.71^[a]
3) COC(=O)CNC(=O)c1sc(Cl)c(Cl)c1F [1.0343]; 2.43^[a]
4) COC(=O)C1(NC(=O)c2sc(Br)c(C#N)c2Cl)CC1 [1.0692]; 2.37^[a]
5) CCOC(=O)C1(NC(=O)c2cc(Cl)c(C#N)s2)CC1 [1.0387]; 2.32^[a]
6) COC(=O)CNC(=O)c1sc(Br)c(C#N)c1Cl [1.0690]; 2.19^[a]
7) CCOC(=O)C(Cc1ccccc1)NC(=O)c1sc(C#N)c(Cl)c1C (stereo not drawn) [1.0306]; 3.77^[a]
8) CNC(=O)CNC(=O)c1sc(Br)c(Br)c1F [1.0737]; 1.81^[a]
9) CCOC(=O)C1(NC(=O)c2sc(Br)c(Cl)c2C)CN(C(=O)OC(C)(C)C)C1 [1.0277]; 4.19^[a]
10) N#CCNC(=O)c1sc(Cl)c(Cl)c1F [1.0342]; 2.30^[a]
11) CCOC(=O)C1(NC(=O)c2sc(C#N)c(Br)c2Br)CC1 [1.0740]; 3.02^[a]
12) CCOC(=O)CNC(=O)c1sc(Br)c(Br)c1C(F)(F)F [1.0367]; 3.05^[a]
13) COC(=O)C(NC(=O)c1sc(Br)c(Br)c1C(F)(F)F)C1CC1 (stereo not drawn) [1.0371]; 3.37^[a]
14) CCOC(=O)C(NC(=O)c1cc(F)c(Cl)s1)C(C)C (stereo not drawn) [1.0309]; 3.44^[a]
15) COC(=O)C(CCSC)NC(=O)c1sc(Br)c(Br)c1C#N (stereo not drawn) [1.0778]; 3.37^[a]
16) Cc1c(C(=O)NCC(=O)OC2CCOC2)sc(C#N)c1Br (stereo not drawn) [1.0679]; 2.12^[a]
17) CC(C)(C)OC(=O)C1(NC(=O)c2sc(Br)c(Br)c2Cl)CC(F)(F)C1 [1.0757]; 4.89^[a]
18) COC(=O)C1(NC(=O)c2sc(Cl)c(Cl)c2C#N)CCC1 [1.0686]; 2.79^[a]
19) CCOC(=O)C(CC1CC1)NC(=O)c1sc(Br)c(Cl)c1C (stereo not drawn) [1.0274]; 4.26^[a]
20) CCOC(=O)C(COC)NC(=O)c1sc(Cl)c(Cl)c1Br (stereo not drawn) [1.0777]; 3.94^[a]
21) CCOC(=O)C(C#N)NC(=O)c1sc(Cl)c(Cl)c1Br (stereo not drawn) [1.0743]; 3.35^[a]
22) Cc1c(C(=O)NC(C(=O)O)C2CC2)sc(C#N)c1Br (stereo not drawn) [1.0286]; 2.19^[a]
23) CCOC(=O)C(NC(=O)c1sc(C#N)c(Br)c1C)C(=O)OCC [1.0773]; 3.23^[a]
24) COC(=O)C(CCSC)NC(=O)c1sc(Cl)c(Cl)c1C#N (stereo not drawn) [1.0770]; 3.14^[a]
25) CCOC(=O)C(CCSC)NC(=O)c1sc(Br)c(Br)c1C(F)F (stereo not drawn) [1.0363]; 3.89^[a]
26) CCOC(=O)C1(NC(=O)c2sc(F)c(Cl)c2C)CC1 [1.0298]; 2.77^[a]
27) CCOC(=O)CNC(=O)c1sc(C#N)c(Cl)c1C [1.0303]; 2.39^[a]
28) O=C(NC(CC(F)F)C(=O)O)c1sc(Cl)c(Cl)c1Br (stereo not drawn) [1.0337]; 2.81^[a]
29) CCOC(=O)C(CC(C)C)NC(=O)c1sc(Cl)c(Cl)c1C#N (stereo not drawn) [1.0279]; 4.05^[a]
30) COC(=O)CNC(=O)c1sc(Cl)c(Cl)c1C#N [1.0681]; 2.17^[a]
31) COC(=O)C1(NC(=O)c2sc(C#N)c(Cl)c2Br)CC1 [1.0667]; 2.42^[a]
32) CCOC(=O)C(C)NC(=O)c1sc(Br)c(Br)c1C(F)F (stereo not drawn) [1.0357]; 3.35^[a]
33) CCOC(=O)C(CCSC)NC(=O)c1sc(F)c(Cl)c1C (stereo not drawn) [1.0300]; 3.64^[a]
34) CCOC(=O)C1(NC(=O)c2sc(Br)c(Br)c2C(F)F)CC1 [1.0341]; 3.20^[a]
35) CCOC(=O)C1(NC(=O)c2cc(Br)c(C(F)(F)F)s2)CC1 [1.0726]; 3.22^[a]
36) CCOC(=O)C(C)(C)NC(=O)c1sc(Cl)c(Br)c1Br [1.0701]; 4.30^[a]
37) CCOC(=O)C1(NC(=O)c2sc(F)c(Br)c2Br)CCC1 [1.0713]; 3.88^[a]
38) C#CCOC(=O)C1(NC(=O)c2sc(Cl)c(Cl)c2C#N)CC1 [1.0785]; 2.65^[a]
39) O=C(NC1(C(=O)O)CC1)c1sc(Cl)c(Br)c1F [1.0702]; 2.15^[a]
40) COC(=O)[C@H](CCC(=O)O)NC(=O)c1sc(Br)c(Br)c1F [1.0330]; 2.36^[a]
41) NC(=O)C1(NC(=O)c2sc(Br)c(Br)c2Cl)CC1 [1.0787]; 2.10^[a]
42) CCOC(=O)C1(NC(=O)c2sc(C#N)c(Cl)c2Br)CCC1 [1.0683]; 3.34^[a]

Where these numbers come from: patent US12642270B2
